Where these numbers come from: patent US20030144310A1

- System: rNPFF-1 (Rattus norvegicus)
- Procedure Text: Functional activity (EC50 and intrinsic activity relative to NPFF)
- Assay Setup: tested 0.001 nM to 3600 nM
Attribute Measured: pEC50
The meaning of pEC50 here: minus log10 of the concentration in molar units.

{"columns": ["Compound", "Endpoint Value"],
 "data": [
  ["N=C(N)NCCC[C@H](NS(=O)(=O)c1ccc(Cl)c([N+](=O)[O-])c1)C(=O)N[C@@H](Cc1ccccc1)C(N)=O", 7.21],
  ["N=C(N)NCCC[C@H](NS(=O)(=O)c1ccc(F)cc1)C(=O)N[C@@H](Cc1ccccc1)C(N)=O", 6.98],
  ["N=C(N)NCCC[C@H](NS(=O)(=O)c1ccccc1)C(=O)N[C@@H](Cc1ccccc1)C(N)=O", 5.33],
  ["N=C(N)NCCC[C@H](NS(=O)(=O)c1cccc([N+](=O)[O-])c1)C(=O)N[C@@H](Cc1ccccc1)C(N)=O", 6.86],
  ["N#Cc1cccc(S(=O)(=O)N[C@@H](CCCNC(=N)N)C(=O)N[C@@H](Cc2ccccc2)C(N)=O)c1", 6.78]
]}

For CN(C)c1cccc2c(S(=O)(=O)N[C@@H](CCCN=C(N)N)C(=O)N[C@@H](Cc3ccccc3)C(N)=O)cccc12 [dansyl-RFamide, reference compound] the compound record lists pEC50 as 6.28

For "N=C(N)NCCC[C@H](NS(=O)(=O)c1c(Cl)cccc1Cl)C(=O)N[C@@H](Cc1ccccc1)C(N)=O" the compound record lists pEC50 as 5.66

For "N=C(N)NCCC[C@H](NS(=O)(=O)c1ccccc1[N+](=O)[O-])C(=O)N[C@@H](Cc1ccccc1)C(N)=O" the compound record lists pEC50 as 6.39

For "N=C(N)NCCC[C@H](NS(=O)(=O)c1ccc(Cl)c(Cl)c1)C(=O)N[C@@H](Cc1ccccc1)C(N)=O" the compound record lists pEC50 as 5.73

For "N=C(N)NCCC[C@H](NS(=O)(=O)c1c(F)cccc1F)C(=O)N[C@H](Cc1ccccc1)C(N)=O" the compound record lists pEC50 as 6.19

For "N=C(N)NCCC[C@H](NS(=O)(=O)c1ccc(Cl)cc1)C(=O)N[C@@H](Cc1ccccc1)C(N)=O" the compound record lists pEC50 as 6.82

For "N=C(N)NCCC[C@H](NS(=O)(=O)c1c(F)cccc1F)C(=O)N[C@@H](Cc1ccccc1)C(N)=O" the compound record lists pEC50 as 6.93

* * *

- System: rNPFF-1 (Rattus norvegicus, UniProt Q9EP86)
- Construct: expressed in transfected cells
- Sequence (Q9EP86 whole entry): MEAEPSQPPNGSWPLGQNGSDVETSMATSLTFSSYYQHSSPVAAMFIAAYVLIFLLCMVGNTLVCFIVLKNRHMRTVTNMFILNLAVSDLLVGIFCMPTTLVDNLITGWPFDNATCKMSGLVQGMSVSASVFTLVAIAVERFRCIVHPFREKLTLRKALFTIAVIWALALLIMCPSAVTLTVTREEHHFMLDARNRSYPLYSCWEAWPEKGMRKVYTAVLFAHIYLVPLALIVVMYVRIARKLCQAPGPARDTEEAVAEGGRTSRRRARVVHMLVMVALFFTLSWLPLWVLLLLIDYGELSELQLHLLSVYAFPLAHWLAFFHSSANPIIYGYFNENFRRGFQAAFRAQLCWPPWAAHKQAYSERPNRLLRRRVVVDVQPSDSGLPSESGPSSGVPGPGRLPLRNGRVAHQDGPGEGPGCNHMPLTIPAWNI
- Procedure Text: Functional activity (EC50 and intrinsic activity relative to NPFF)
- Format: cell-based
- Assay Setup: intrinsic activity as percentage of maximal response by NPFF
Attribute Measured: Functional Activity rNPFF-1 I.A. %
Units required after the number.

As a guide, the following entries are already answered.
{"columns": ["Compound", "Functional Activity rNPFF-1 I.A. %"],
 "data": [
  ["N=C(N)NCCC[C@H](NS(=O)(=O)c1ccc2ccccc2c1)C(=O)N[C@@H](Cc1ccccc1)C(N)=O [Compound 1014]", "74%"],
  ["N=C(N)NCCC[C@H](NS(=O)(=O)c1cc(Cl)sc1Cl)C(=O)N[C@@H](Cc1ccccc1)C(N)=O [Compound 1020]", "01%"],
  ["N=C(N)NCCC[C@H](NS(=O)(=O)c1c(F)cccc1F)C(=O)N[C@H](Cc1ccccc1)C(N)=O [Compound 1032]", "47%"],
  ["Cc1ccc(S(=O)(=O)N[C@@H](CCCNC(=N)N)C(=O)N[C@@H](Cc2ccccc2)C(N)=O)cc1 [Compound 1007]", "79%"],
  ["N=C(N)NCCC[C@H](NS(=O)(=O)c1cccs1)C(=O)N[C@@H](Cc1ccccc1)C(N)=O [Compound 1013]", "80%"]
]}

For N=C(N)NCCC[C@H](NS(=O)(=O)c1ccc(I)cc1)C(=O)N[C@@H](Cc1ccccc1)C(N)=O [Compound 1012] the compound record lists Functional Activity rNPFF-1 I.A. % as 71%

For N#Cc1cccc(S(=O)(=O)N[C@@H](CCCNC(=N)N)C(=O)N[C@@H](Cc2ccccc2)C(N)=O)c1 [Compound 1023] the compound record lists Functional Activity rNPFF-1 I.A. % as 90%

For N=C(N)NCCC[C@H](NS(=O)(=O)c1ccc(Cl)cc1Cl)C(=O)N[C@@H](Cc1ccccc1)C(N)=O [Compound 1010] the compound record lists Functional Activity rNPFF-1 I.A. % as 85%

For N=C(N)NCCC[C@H](NS(=O)(=O)c1ccc2ccccc2c1)C(=O)N[C@H](Cc1ccccc1)C(N)=O [Compound 1029] the compound record lists Functional Activity rNPFF-1 I.A. % as 30%

For N=C(N)NCCC[C@H](NS(=O)(=O)c1ccccc1)C(=O)N[C@@H](Cc1ccccc1)C(N)=O [Compound 1008] the compound record lists Functional Activity rNPFF-1 I.A. % as 70%

For COc1ccc(S(=O)(=O)N[C@@H](CCCNC(=N)N)C(=O)N[C@@H](Cc2ccccc2)C(N)=O)cc1OC [Compound 1015] the compound record lists Functional Activity rNPFF-1 I.A. % as 84%

For N=C(N)NCCC[C@H](NS(=O)(=O)Cc1ccccc1)C(=O)N[C@@H](Cc1ccccc1)C(N)=O [Compound 1011] the compound record lists Functional Activity rNPFF-1 I.A. % as 74%

For N=C(N)NCCC[C@@H](NS(=O)(=O)c1cccc2ccccc12)C(=O)N[C@@H](Cc1ccccc1)C(N)=O [Compound 3001] the compound record lists Functional Activity rNPFF-1 I.A. % as 1%

For N=C(N)NCCC[C@H](NS(=O)(=O)c1c(F)c(F)c(F)c(F)c1F)C(=O)N[C@@H](Cc1ccccc1)C(N)=O [Compound 1024] the compound record lists Functional Activity rNPFF-1 I.A. % as 69%

For CN(C)c1cccc2c(S(=O)(=O)N[C@@H](CCCN=C(N)N)C(=O)N[C@@H](Cc3ccccc3)C(N)=O)cccc12 [dansyl-RFamide, reference compound] the compound record lists Functional Activity rNPFF-1 I.A. % as 106%

* * *

- System: rNPFF-2 (Rattus norvegicus)
- Construct: expressed in transfected cells
- Sequence (Q9EQD2 whole entry): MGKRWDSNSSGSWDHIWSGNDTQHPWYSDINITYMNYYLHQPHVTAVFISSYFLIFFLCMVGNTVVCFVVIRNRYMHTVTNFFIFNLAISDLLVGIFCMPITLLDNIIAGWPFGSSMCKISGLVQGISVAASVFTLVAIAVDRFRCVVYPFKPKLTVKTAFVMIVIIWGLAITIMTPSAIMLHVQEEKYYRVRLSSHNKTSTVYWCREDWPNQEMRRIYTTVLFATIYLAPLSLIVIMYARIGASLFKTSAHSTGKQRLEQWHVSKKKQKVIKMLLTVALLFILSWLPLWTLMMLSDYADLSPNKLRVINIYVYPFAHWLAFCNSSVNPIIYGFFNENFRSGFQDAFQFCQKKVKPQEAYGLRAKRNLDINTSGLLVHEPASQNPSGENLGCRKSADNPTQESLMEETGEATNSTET
- Procedure Text: Radioligand binding assay, competitive displacement of [125I]1DMeNPFF at cloned NPFF receptors
- Assay Setup: cloned rat receptor
Attribute Measured: Ki (nM)
Use nM as the unit, but write only the number.

As a guide, the following entries are already answered.
{"columns": ["Structure Notation", "System", "Attribute Measured", "Unit Tag", "Endpoint Value"],
 "data": [
  ["N=C(N)NCCC[C@H](NS(=O)(=O)c1cc(Cl)sc1Cl)C(=O)N[C@@H](Cc1ccccc1)C(N)=O", "rNPFF-2 (Rattus norvegicus)", "Ki", "nM", 5150],
  ["N=C(N)NCCC[C@H](NS(=O)(=O)c1cccs1)C(=O)N[C@@H](Cc1ccccc1)C(N)=O", "rNPFF-2 (Rattus norvegicus)", "Ki", "nM", 6390],
  ["N=C(N)NCCC[C@H](NS(=O)(=O)c1ccccc1[N+](=O)[O-])C(=O)N[C@@H](Cc1ccccc1)C(N)=O", "rNPFF-2 (Rattus norvegicus)", "Ki", "nM", 3500],
  ["Cc1ccc(S(=O)(=O)N[C@@H](CCCNC(=N)N)C(=O)N[C@@H](Cc2ccccc2)C(N)=O)cc1", "rNPFF-2 (Rattus norvegicus)", "Ki", "nM", 3080],
  ["N=C(N)NCCC[C@H](NS(=O)(=O)c1ccc([N+](=O)[O-])cc1)C(=O)N[C@@H](Cc1ccccc1)C(N)=O", "rNPFF-2 (Rattus norvegicus)", "Ki", "nM", 2610],
  ["N=C(N)NCCC[C@H](NS(=O)(=O)c1c(F)cccc1F)C(=O)N[C@@H](Cc1ccccc1)C(N)=O", "rNPFF-2 (Rattus norvegicus)", "Ki", "nM", 1450]
]}

For "N=C(N)NCCC[C@H](NS(=O)(=O)c1ccc2ccccc2c1)C(=O)N[C@H](Cc1ccccc1)C(N)=O" the compound record lists Ki as 2690

For "N=C(N)NCCC[C@H](NS(=O)(=O)c1cc(Cl)ccc1Cl)C(=O)N[C@@H](Cc1ccccc1)C(N)=O" the compound record lists Ki as 2030

For "N=C(N)NCCC[C@H](NS(=O)(=O)c1ccc([N+](=O)[O-])cc1[N+](=O)[O-])C(=O)N[C@@H](Cc1ccccc1)C(N)=O" the compound record lists Ki as 5490

For "COc1ccc(Br)cc1S(=O)(=O)N[C@@H](CCCNC(=N)N)C(=O)N[C@@H](Cc1ccccc1)C(N)=O" the compound record lists Ki as 4120

For "N=C(N)NCCC[C@H](NS(=O)(=O)c1ccc2ccccc2c1)C(=O)N[C@@H](Cc1ccccc1)C(N)=O" the compound record lists Ki as 2780

For "N#Cc1ccccc1S(=O)(=O)N[C@@H](CCCNC(=N)N)C(=O)N[C@@H](Cc1ccccc1)C(N)=O" the compound record lists Ki as 6170
